Source: the supplement of paper PMC9170038

System: K4 kissing-loop RNA reporter
experimental_protocol: apparent KD of K4 kissing-loop reporter; higher = weaker reporter binding
assay_context: Eterna round: R107; input ligand: arginine 13.2 mM
endpoint: apparent KD of K4 kissing-loop reporter
# output: number + unit

- sequence_chain: "AGUACAGACACGGCCGCCACUCAGAAGAAGAUAGUAGUGAUGUUACUGAUGAUGAGAAUAAUAAAGAGGACCGGGUGUUGUGCAA [#09 K4 Tryptophan B Same State]"
  endpoint: "apparent KD of K4 kissing-loop reporter"
  endpoint_value: "0.1 µM"
- sequence_chain: "UUAUACUCAUGUAAAGAACUAGUAACCGAAGGAGCGACAUAAAAGUCAGGUAGGUCGCGGAUUUCUCAGUGAUGUUGAGAGCAUU [JR_SSArginiA_Sub012]"
  endpoint: "apparent KD of K4 kissing-loop reporter"
  endpoint_value: "0.192 µM"

In the following, a different sequence is considered.
Exam item: For AAAAUAAACCAGUGAUGUUGGUGUGUAGAUACCAGCGACGAAAGUCGCCCUUGGCAGCUGUGGACGUACAAAAUAAGUACGUCCU [MatMod 23 - Jieux - Same State - Theophylline A] , write its apparent KD of K4 kissing-loop reporter.
Marked response: 0.31 µM

###

System: MS2 coat protein
experimental_protocol: apparent KD of MS2 coat protein; designed switch direction (-1 OFF switch, 1 ON switch): -1; higher = weaker reporter binding
assay_context: input ligand: none
endpoint: apparent KD of MS2 coat protein (nM)
Field: numeric (nM). Do not append units.

A selection of reference data follows.
- sequence_chain: "GUAAUUAAUGUAGGAUAUGCAAGGCGAACCUAAGCAGAAGGACAUGUGGAUCACCCAUGUAAACAUGAGGAUCACCCAUGUGCU [salish99_ExNG1_r4_006] (Eterna round: R96, puzzle: Exclusion NG 1)"
  apparent KD of MS2 coat protein (nM): 4270
- sequence_chain: "UCCUCACAUGAGGAUCACCCAUGUUAGGAUAUCUUAGAGCGCGAAAGACAGUUCUUUAAGAGAAGGAACUGGGC [Exclusion 1 (MOD1 of Edarti)] (Eterna round: R97, puzzle: Exclusion 1)"
  apparent KD of MS2 coat protein (nM): 22.4
- sequence_chain: "AGAUUGUUAGGAUAUUCGGACCGCUACGAAGCGUGGUCCAGGGAGAAGGAACAUGAGGAUCACCCAUGUGACCA [Eternabot (L2) Solution 33] (Eterna round: R97, puzzle: Exclusion 4)"
  apparent KD of MS2 coat protein (nM): 26

Please look at the following sequence next.
Exam item: Provide one value: measured apparent KD of MS2 coat protein of GGAAACCUACCGCGACAUGAGGAUCACCCAUGUGAUUGGUUUUAGGAUAUCUGGAGAAUCCAGACAGAGAAGGAGGGCCGUCGC [Eternabot solution 38] (Eterna round: R96, puzzle: Exclusion NG 3)
Marked response: 45.1

###

Recorded apparent KD of K4 kissing-loop reporter values for a group of sequences are listed next.
System: K4 kissing-loop RNA reporter;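 note: bound reporter read as fluorescence of individual clusters on recovered sequencing chips by microscopy, with normalized cluster intensities fitted with a binding model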
experimental_protocol: apparent KD of K4 kissing-loop reporter; higher = weaker reporter binding
assay_context: Eterna round: R107; input ligand: tryptophan 2.4 mM
Please give the number followed by its unit.

Field: example entries. Status: answers known.
- sequence_chain: "GCAGUGAUGUUGCUGAUGUACAGUGGGAUACGAGGACCGGUACGGCCGCCACUCGUACAGAAUUUGUUAAUACAUCGAUAAGUGA [XV]"
  apparent KD of K4 kissing-loop reporter: "522 nM"
- sequence_chain: "CAUUCGAAAUGCAGUGAUGUUGCAACUGAUACCAGUAUCGAAAGAUACCCUUGGCAGCGGAAAACCGCUACGUUUUUUUUGAAUG [Ex Theophylline A K4 24]"
  apparent KD of K4 kissing-loop reporter: "176 nM"
- sequence_chain: "AUGCAUCAGACUUGAUACGGUGAAAUAGCCCGAGGACCGGUACGGCCGCCACUCGGUCCAGUGAUGUUGGAUAAUUAAUCUAGGU [theeternabot_sameState_KL_Trp_A_34]"
  apparent KD of K4 kissing-loop reporter: "82.4 nM"
- sequence_chain: "CCCUCACGAGUGAUGUUCGUAGGGUACAGUCAGGAUAUCAUGCGGUUGAGAAGGGACAGAGAGGGCGGCCACUGGUUGCUCUUCU [Tiatesqu]"
  apparent KD of K4 kissing-loop reporter: "200 nM"
- sequence_chain: "AGUCCACUCUAAAGAGUGGACCUAAGGGAUACCAGUGAUGUUGGUCACCCUUGGCAGCCCACUGUCAUCGAUAAAGAUGGCAGAA"
  apparent KD of K4 kissing-loop reporter: "116 nM"

Exam item: Provide only the value of recorded apparent KD of K4 kissing-loop reporter for AUACGUUUAAGUGAUACCAGACAUGUGAGUGAUGUUUACAUAUAUAUUUAAUAUUUAGCUGUCCCUUGGCAGCACAGUUUAUUUA [JR_ExcTheophyB_Sub001]
Marked response: 308 nM

Exam item: Note down apparent KD of K4 kissing-loop reporter recorded for AAUAAAAUCACGGCCGCCACUGAAUUAUUGGUAAGUAGUGAUGUUACUUUACAUAUCUAAUUUAACAGGACCGGGUGAAUAUUUA [#17 K4 Tryptophan B Exclusion]
Marked response: 131 nM

Exam item: Using known records, supply apparent KD of K4 kissing-loop reporter for UGACAUUGCUCAGAUACCAGUCAUGAGGAUCACCCAUGGGCCAAACGUACAAUAAUAAAUGACCCUUGGCAGCUGAGCAAUGUCU [TheoBX 14]
Marked response: 62.8 nM

Exam item: Note apparent KD of K4 kissing-loop reporter for the sequence shown: UGUGAUGUGUAGAGUGAUGUUUUGAAGGAUACCAGAGUGUUGUUAUUCCCUUGGCAGCUUGAGUGAUGUUUGAUGUUGUUGUUGU [efvrmullin]
Marked response: 152 nM

Exam item: Answer with the recorded apparent KD of K4 kissing-loop reporter of ACGCUGGUGAAUAACACUAGCGAAAAUUCGCGAGGACCGGUACGGCCGCCACUCGCUAACUGCGAGUGAUGUUCGAUAAUAAAAU [Mat - Mod of OpenEnded 3 - D8] only.
Marked response: 112 nM

Exam item: Please look at this sequence and report its apparent KD of K4 kissing-loop reporter: UCACGUGCCAGUGAUGUUGGCGUACGUGAUACCAGACGAAUAAAAGUCCCUUGGCAGCACAAAUAUGCCAAGUUAGAUGUAUGAU [Exclusion Theophylline A GF 2]
Marked response: 116 nM

Exam item: Give apparent KD of K4 kissing-loop reporter for AUAUGCAGGAGAAGGAGCGUCGUUGCAAGUGAUGUUUGCAAGCGAGCUUACUAUAUACGACGACAGGUAGGUCGCUCCUGCGUAA [Arg B Ex t2]
Marked response: 67.2 nM

###

apparent KD of MS2 coat protein overview
System: MS2 coat protein
experimental_protocol: apparent KD of MS2 coat protein; designed switch direction (-1 OFF switch, 1 ON switch): -1; higher = weaker reporter binding
assay_context: Eterna round: R95; input ligand: none
Your answer should be a plain number; it is taken to be in nM.

Exam item: Supply measured apparent KD of MS2 coat protein of AGAUCACAUGAGGAUCACCCAUGUCAGGAUAUGAUACUAUGUACUUCGGUACAUAGUAUCAGAAGGGACAUAAA [Ex1-3: 69] (puzzle: Exclusion 1) in your reply.
Marked response: 89.2

Exam item: Determine from records and report apparent KD of MS2 coat protein for GUAAUUAUAUAGGAUAUCGAAAGUAUAAUUUAACGAGAAGGAUGAACAUGAGGAUCACCCAUGUGGUAUCAUGG [JL-ex6-3.08] (puzzle: Exclusion 6)
Marked response: 219

Exam item: Specify apparent KD of MS2 coat protein for GGUACUAACACGAGAGUGUUAGUACUAUAAGCUUGUGUUACAUGAGGAUCACCCAUGUCCUCAUAAGCUCGUCUUGA [Mat - Sensor v3 - Turn-off var 2 - D90] (puzzle: Sensor v3, turn-off variant 2) and stop.
Marked response: 36.2

Exam item: Write down apparent KD of MS2 coat protein measured for item GGUACUAACACGAAAGUGUUAGUACUAUAAGCUUGUGUUACAUGAGGAUCACCCAUGUCCUCAUAGGCUCGUCUUAU [JL-sv3-2.18 mat747 mod] (puzzle: Sensor v3, turn-off variant 2)
Marked response: 252

Exam item: Provide one value: measured apparent KD of MS2 coat protein of GCGAAAGCAAAACAAGUGAACAUGAGGAUCACCCAUGUCCUCAUUUGCUCGUCUUAUAAGCUAUGCGAAAGCAUAGC [Sensor 3, v1 - 9] (puzzle: Sensor v3, turn-off variant 1)
Marked response: 96.7

Exam item: Indicate its recorded apparent KD of MS2 coat protein; the sequence in question is GAUUAUGCGAGCUUUAGGGACAUGAGGAUCACCCAUGUUCGUCUUAUUGGUCUAGAUGCACUAACAUACCUAAAUCU [JMF 26] (puzzle: Sensor v3, turn-off variant 1)
Marked response: 18.2

Exam item: Dear colleague, please send me the reported apparent KD of MS2 coat protein for GCAAGAGCAGGAUAUCUAAUAUAUCACAUGAGGAUCACCCAUGUCCAGCGAAAGCUGGAGGGAGAAGGGCUCUUGC [Mat - Exclusion 5 - Eli mod - D101] (puzzle: Exclusion 5) when you can.
Marked response: 150

Exam item: Read off the recorded apparent KD of MS2 coat protein for AGUAGUAGUGUCCGAUCCUACAUGAGGAUCACCCAUGUAGCUAGACGUGCACGCGAUGCUCGUCAGACUACCAGAUG [salish99_TOv1_r3_046] (puzzle: Sensor v3, turn-off variant 1)
Marked response: 129

Exam item: Name the recorded apparent KD of MS2 coat protein of the sequence listed here: UCAUGUUUAGAGGAUAUGAUUACUCUAGAGUGAUCAGAAGGCUAGACAUGAGGAUCACCCAUGUCAGAACAUGA [Exclusion 6 - B - 16:b] (puzzle: Exclusion 6)
Marked response: 46.5

Exam item: Given CCGAGGUAGCGGUCCUAUGACAUGAGGAUCACCCAUGUACCUCGCUACGAGCUUUUUGCUCGUCAUAUAAUUCUCGG [Mat - Sensor v3 - turn-off var 1 - JL Mod - D30] (puzzle: Sensor v3, turn-off variant 1) , respond with its apparent KD of MS2 coat protein.
Marked response: 66.3
